Source of measurements: patent US12522616B2

# Assay name: In vivo DMPK assay in mouse
# Condition context: female BALB/c mice, 3 mg/kg orally
Test readout: Oral DNAUC (AUCPO/Dose) (nM · h/mpk)

Prompt: Given the entry `Cn1nccc1Nc1nccc(-c2nc3c(s2)C(C)(C)N(Cc2cccc(Cl)c2)C3=O)n1` , report its measured Oral DNAUC (AUCPO/Dose).
Completion: 2153

Prompt: Another: `Cc1cnc(Nc2ccnn2C)nc1-c1nc2c(s1)C(C)(C)N(Cc1cccc(F)c1)C2=O`
Completion: 530

I = Cc1cnc(Nc2ccnn2C)nc1-c1nc2c(s1)C(C)(C)N(Cc1cccc(Cl)c1)C2=O
II = [2H]C([2H])([2H])n1nccc1Nc1ncc(C)c(-c2nc3c(s2)C(C)(C)N(Cc2cccc(F)c2)C3=O)n1
Prompt: Consider entries I and II . Which has the numerically lower Oral DNAUC (AUCPO/Dose)? Please identify the chosen entry by its label.
Completion: I
